Source: PubChem BioAssay (NCATS)

Biological target: Rap guanine nucleotide exchange factor 3 (Homo sapiens)
Experiment: Counterscreen qHTS for antagonist of cAMP-regulated guanine nucleotide exchange factor 3 (EPAC1) (AID 1645888);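 further: fluorescence loss as bound BODIPY-GDP is released from Rap1B; % of control where 0% means no effect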
Conditions: Rap1B-BODIPY-GDP nucleotide exchange, fluorescence; series mostly up to 154 µM
From the text: Assay Provider (PI): Xiaodong Cheng Ph.D. The University of Texas Medical Branch, […], TX MLPCN Grant: NS066510 In multi-cellular eukaryotic organisms, the effects of cAMP are transduced by two ubiquitously-expressed intracellular cAMP receptors, the classic protein kinase A/cAMP-dependent protein kinase (PKA/cAPK) and the more recently discovered exchange protein directly activated by cAMP/cAMP-regulated guanine nucleotide exchange factor (EPAC/cAMP-GEF). […]
Records with an inconclusive call do not appear. Calls of active or inactive are those of the source. The call rests on the fitted dose curve; in most records, active means well fitted inhibition curve with a large enough effect; inconclusive means small, poorly fitted or top-dose-only effect; inactive means no such curve, though single readings can be large or run the other way.
Endpoint: activity change, negative = inhibition

Before answering, review these 5 worked examples.
Compound | activity change, negative = inhibition
Clc1cccc(-c2ccc3nccn3c2)c1Cl | inactive
COC(=O)/C(=C/Nc1ccc(O)cc1)[N+](=O)[O-] | inactive
CCOc1ccccc1Oc1ncnc2c1oc1ccccc12 | inactive
Cc1ccc(/C=C2/SC(=S)N(c3ccc(S(=O)(=O)Nc4nccs4)cc3)C2=O)cc1 | inactive
CN(CC(=O)Nc1ccc(Cl)c(C(F)(F)F)c1)C(=O)c1ccc2c(c1)OCCO2 | inactive

INPUT: Find activity change, negative = inhibition (Rap guanine nucleotide exchange factor 3 (Homo sapiens)) for the entry CC1CN(C(=O)CCC(=O)NCc2ccc(F)cc2)c2ccccc2S1 (stereo unspecified)
OUTPUT: -2.67% [at 30.8 µM] (inactive)

INPUT: Next entry: `CNc1snc(C)c1C(=O)OCC(=O)Nc1ccc(C)cc1F`
OUTPUT: inactive

INPUT: Now consider `Cc1cc(/C=C2\SC(=S)NC2=O)c(C)n1-c1cccc(O)c1` and answer again.
OUTPUT: inactive

INPUT: How about `COc1ccc(N=Nc2nc3ccc(Br)cc3n2C)cc1` ?
OUTPUT: inactive

INPUT: Try this compound too: `COc1cc(C(C)=O)ccc1COc1ccc(C(=O)O)cc1OC`
OUTPUT: -10.4% [at 30.8 µM] (inactive)

INPUT: What about this compound? `Oc1ccc(Cc2ccc(Cl)cc2)c(O)c1`
OUTPUT: -18.2% [at 30.8 µM] (inactive)
